Hey, just so you know, these numbers are from ChEMBL document CHEMBL5543083.

SYSTEM NAME: Alpha-amylase (Sus scrofa domesticus, UniProt Q7M328)
Sequence (Q7M328 whole entry): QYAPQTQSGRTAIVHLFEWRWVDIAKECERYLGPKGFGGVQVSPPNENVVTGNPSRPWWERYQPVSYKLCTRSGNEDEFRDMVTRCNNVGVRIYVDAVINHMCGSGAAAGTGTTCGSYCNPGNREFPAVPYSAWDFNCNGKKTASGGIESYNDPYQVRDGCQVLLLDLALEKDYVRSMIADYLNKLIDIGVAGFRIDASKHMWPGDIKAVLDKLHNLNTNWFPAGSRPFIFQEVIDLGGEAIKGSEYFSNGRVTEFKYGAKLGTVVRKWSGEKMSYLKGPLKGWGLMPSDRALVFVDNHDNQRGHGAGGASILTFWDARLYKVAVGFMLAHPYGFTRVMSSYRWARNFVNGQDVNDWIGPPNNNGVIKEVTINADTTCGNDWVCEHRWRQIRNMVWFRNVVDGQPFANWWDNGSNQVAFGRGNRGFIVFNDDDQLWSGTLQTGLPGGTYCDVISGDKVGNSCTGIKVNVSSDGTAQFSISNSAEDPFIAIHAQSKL
TEST METHOD NOTES: Inhibition of porcine pancreatic Alpha-amylase using starch as substrate preincubated for 10 mins followed by substrate addition and measured after 15 mins by Bio-rad microplate reader analysis
SETTINGS: read-out: IC50
Here, each record is paired with measured IC50 data.
Your answer is read as µM, so omit the unit and give the number.

These recorded examples may help you get a feel for the data.
>>> quantitative_result("COc1ccc(OC)c(/C=C2\\SC(=O)N(Cc3cccc([N+](=O)[O-])c3)C2=O)c1")
48.1
>>> quantitative_result("COc1cc(OC)c(/C=C2\\SC(=O)N(Cc3cccc([N+](=O)[O-])c3)C2=O)c(OC)c1")
44.6
>>> quantitative_result("O=C1S/C(=C\\c2ccc(Cl)cc2Cl)C(=O)N1Cc1cccc([N+](=O)[O-])c1")
24.1
>>> quantitative_result("O=C1S/C(=C\\c2ccc(Br)cc2)C(=O)N1Cc1cccc([N+](=O)[O-])c1")
23.9

Okay, next one:
Provide one value: measured IC50 of O=C1S/C(=C\c2c(Cl)cccc2Cl)C(=O)N1Cc1cccc([N+](=O)[O-])c1
25.1
